Data credit: paper PMC7826789

Property: Percent Control; scope: individual compounds
Tested on: LATS1;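 note: KINOMEscan scanMAX binding as percent activity remaining versus control; lower means stronger binding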
cond: Compound Concentration (nM):1000
parameter measured: Percent Control (%)

> print(dat)
                                    compound  reading
 1  CCS(=O)(=O)c1ccc(OC)c(Nc2ncc(-c3cccc(F)c3)o2)c1 [GW621970X]       94
 2  NS(=O)(=O)c1ccc(N/N=C2\C(=O)Nc3ccc(C(=O)NCCc4c[nH]cn4)cc32)cc1 [GW300660X]      100
 3  CN1CCN(C(=O)c2ccc(NC(=O)Nc3ccc(N(C)c4ccnc(Nc5ccc(CS(C)(=O)=O)cc5)n4)cc3)cc2)CC1.Cl [GW830263A]       68
 4  NS(=O)(=O)c1ccc(Nc2ncc(-c3ccccc3)o2)cc1 [GW572399X]      100
 5  COC(=O)Nc1nc2ccc(Oc3ccc(NC(=O)Nc4cc(C(F)(F)F)ccc4F)cc3)cc2s1.Cl [GW693917A]      100
 6  CN(C)c1cc2c(Nc3ccc4c(cnn4Cc4ccccc4)c3)ncnc2cn1 [GW282974X]      100
 7  COc1cc(C)c(N(C)C(=O)CN(C)C)cc1Nc1nc(Nc2cccc(F)c2C(N)=O)c2cc[nH]c2n1      100
 8  Cc1cc(O)cc(C)c1/C=C/c1cncc(C(N)=O)c1 [GW435821X]      100
 9  O=C1Nc2ccc(C(=O)c3ccco3)cc2C1=Cc1cc(Cl)c(O)c(Cl)c1 [GW406108X]      100
10  NS(=O)(=O)c1ccc(N/N=C2\C(=O)Nc3ccc(Cl)cc32)cc1 [GW280670X]      100
11  C/C(Nc1ccc(S(N)(=O)=O)cc1)=C1/C(=O)Nc2ccccc21 [GW335962X]      100
12  COc1ccccc1-c1cc(/C=C2\C(=O)Nc3ncc(Br)cc32)cc(Br)c1O [GW442130X]      100
13  CCc1ccc(Oc2nccc(-c3c(-c4ccc(F)cc4)ncn3C3CCNCC3)n2)cc1      100
14  Cl.O=C(Nc1ccc(Oc2ccc3[nH]c(NC(=O)c4ccco4)nc3c2)cc1)Nc1cc(C(F)(F)F)ccc1F [GW683134A]      100
15  NS(=O)(=O)c1ccc(N/N=C2\C(=O)Nc3ccc(-c4cnco4)cc32)cc1       56
16  COc1ccc(COc2ccc(Cc3cnc(N)nc3N)cc2OC)cc1 [GW632580X]      100
